property-measured: melting point (°C)
Give the value, in units of °C, as a plain number.

[
  {
    "mol": "CS(=O)(=O)c1ccc(-n2nc(C(F)(F)F)cc2-c2ccc(-c3ccco3)cc2)cc1",
    "measurement-units": "°C",
    "meas-value": 196
  }
]

Then there is this compound:
Q: Tell me the measured melting point of `O=C1N=NC(=O)c2c1[nH]c1cc(Br)ccc21` , please.
Result: 260

---

property-measured: melting point

[
  {
    "molecule": "O=c1[nH]c2cc(Cl)ccc2c(CCc2nnn[nH]2)c1-c1ccccc1",
    "meas-value": "231 to 233 °C"
  },
  {
    "molecule": "O=Cc1c2ccccc2cc2cccc(SCCO)c12",
    "meas-value": "103 to 104 °C"
  },
  {
    "molecule": "COc1ccc(CCC(=O)c2c(O)cc(OC)cc2OC)cc1",
    "meas-value": "110 °C"
  },
  {
    "molecule": "COc1cc(F)c(C=O)cc1O",
    "meas-value": "153 to 154 °C"
  },
  {
    "molecule": "CCCCC(c1c[nH]cn1)c1cccc(CO)c1O (stereo unspecified)",
    "meas-value": "93 °C"
  },
  {
    "molecule": "O=C(COc1cc(F)ccc1C(=O)NCc1cccc([N+](=O)[O-])c1)OC1CCCCC1",
    "meas-value": "87 to 90 °C"
  }
]

Q: Tell me the measured melting point of `NS(=O)(=O)c1ccc(-n2nc(C(F)(F)F)cc2-c2ccc(-c3ccco3)cc2)c(F)c1` , please.
Result: 174 °C

Q: Note, next up: CC1C=C(C(=O)C(C#N)C(=O)Nc2ccccc2)c2cccc3c2=C1C1=CN=NC=31 (stereo unspecified)
Result: 275 to 278 °C

Q: Note, next up: `Cc1nn(-c2cc(Oc3ccc(O)cn3)c(Cl)cc2F)c(=O)n1C(F)F`
Result: 179 to 181 °C

Q: Note, next up: `Cc1nc(-c2cccnc2)c(C)[nH]1`
Result: 179 to 181 °C

Q: Note, next up: `CC(=O)Nc1c(N)cc(Br)cc1OCc1ccccc1`
Result: 185 °C

Q: Note, next up: `CCOC(=O)c1cc2n(c1)CN(C(=O)OCC)c1c(OC)cccc1-2`
Result: 172 to 174 °C

Q: Note, next up: `O=C(O)c1ccc(C(=O)NCCc2ccccc2)cc1`
Result: 237 to 238 °C

Q: Note, next up: `COc1ccc(-c2nc3ccc(OC(F)(F)F)cc3[nH]2)cc1OCc1ccccc1`
Result: 226 to 228 °C

Q: Note, next up: `CCN(CC)CCN(CC)C(=O)c1ccccc1Nc1ccnc2c(C(F)(F)F)cccc12`
Result: 112 to 113 °C

Q: Note, next up: `N#Cc1c(N)cccc1Sc1cccc(N)c1`
Result: 99 to 100 °C

Q: Note, next up: `Clc1cnc2[nH]c3ccc(CCc4ccccc4)cc3c2c1`
Result: 216 to 220 °C

Q: Note, next up: `COc1ccc(Nc2cncc(-c3cccc(Nc4ccccn4)c3)c2)cc1`
Result: 161 to 165 °C

Q: Note, next up: `COc1cc(-n2c(C#N)c3n(c2=O)CCCC3)c(F)cc1Cl`
Result: 173 to 175 °C

Q: Note, next up: `CS(=O)(=O)N1CCn2c(nc3c(N)nc4cc(OCc5ccccc5)ccc4c32)C1`
Result: 266 to 268 °C

Q: Note, next up: `COC(=O)c1ccc(NC(=O)c2cc(C(C)C)c(C(C)C)s2)cc1F`
Result: 146 to 147 °C
